Some compounds, each annotated with its measured CC50.
ASSAY DETAILS: in vitro
Assay type: cell-based, human
COND: human

CNc1nc(N)nc2c1ncn2[C@H]1C[C@H](O)[C@](CO)(CF)O1    > 100 µM

IN: For Nc1nc(NC2CC2)c2ncn([C@H]3C=C[C@@H](CO)C3)c2n1 [ABC, abacavir, reference compound] , what is its reported CC50?
OUT: > 100 µM

IN: Look up CC50: Cc1cn([C@H]2C[C@H](N=[N+]=[N-])[C@@H](CO)O2)c(=O)[nH]c1=O [AZT, zidovudine, reference compound]
OUT: > 100 µM
